- testedOn: HCV Core 134-171-TT peptide (ALRZ-9 peptide) (HCV-1)
- methodNotes: SPR, captured mAb;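 note: Anti-HCV Core mAbs from hybridoma supernatants held on a rabbit anti-mouse IgG CM5 surface, peptide flowed over 3 min then 4 min dissociation, duplicate concentrations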
measureName: log10 Kd (log10 of the value in nM)
Quick note: numbers are log10 of Kd, with nM as the unit.

Inquiry: Bench note: what log10 Kd did HCV 208B-281 (antibody, V domains shown) VH: QGQLQQSGAELVKPGASVKLSCKTSGFTFSSSYISWLKQRPGQSLEWIAWIYAGTGGTNYNQKFTDKAQLTVDTSSSTAYMQFSSLTTEDSAIYYCAISGTGFIYWGQGTLVTVSA VL: DVLMTQTPLSLPVSLGDQASISCRSSQSLVHNNGNTYLEWFLQKPGQSPKLLIYKVSNRFSGVPDRFSGSGSGTDFTLKISRVEAEDLGVYYCFQGSHVPFTFGSGTKLEIKR show?
Reply text: 1.98

Inquiry: Now the same for HCV 208B-251 (antibody, V domains shown) VH: QLQQSGPVLVKPGASVKISCKTSGYTFTENAMHWVKQSHGKSLEWIGGVNPNNGDTIYNQKFKGKATLTVDKSSSTAFMELRSLTSEESPVYFCVRRELDFFDYWGQGTSVTVSS VL: DIVLTQSPASLAVSLGKKATISCRASQSVSTSRYSYMHWYQQKPGHPPKLLIKYASNLESGVPARFSGSGSGTDFTLNIHPVAEEDTAAYYCQHSWEFPFTFGSGTKLEIKR
Reply text: -0.24

Inquiry: Now the same for HCV 208B-556 (antibody, V domains shown) VH: QLQQSGPVLVKPGASVMISCKTSGYTFTENAMHWVKQSHGKSLEWIGGVNPNNGDTIFNQKFKGKATLTVDKSSSTAFMEFRSLTSEESTVYYCVRRELDFFDYWGQGTSVTVSS VL: DIVLTQSPASLAVSLGQRATISCRASQSVSTSRYSYMHWYQQKPGQPPKLLIKYASNLESGVPARFSGSGSGTDFTLNIHPVAEEDTATYYCQHSWEFPFTFGSGTKLEIKR
Reply text: -0.40

Inquiry: Now the same for HCV 208A-134 (antibody, V domains shown) VH: QGQMQQSGAELAKPGASVKLSCKTSGFTFSSSYISWLKQKPGQSLEWIAWIYAGTGNTNYNQKFTDKAQLTVDTSSSTAYMQLSSLTTEDSAIYYCAISGTGFTYWGQGTLVTVSA VL: EVLMTQSPLSLPVSLGDQASISCRSSQSLEHTNGNTYLEWFLQRPGQPPKLLIYKVSSRFSGVPDRFSGSGSGTDFTLKISRVEAEDLGVYYCFQGSHVPFTFGSGTKLAIKR
Reply text: 0.32

Inquiry: Now the same for HCV 208A-741 (antibody, V domains shown) VH: QLQQSGPVLVKPGASVMISCKTSGYTFTENAMHWVKQSHGKSLEWIGGVNPNNGDTIFNQKFKGKATLTVDKSSSTAFMELRSLTSEESTVYYCVRRELDFFDYWGQGTSVTVSS VL: DIVLTQSPASLAVSLGQRTTISCGASQSVSTSRFSYMHWYQQKPGQPPKLLIKYASNLESGVPARFSGSGSGTDFTLNIHPVAEEDTAAYYCQHSWEFPFTFGSGTKLEIKR
Reply text: -0.39
